The origin of these recorded values is patent US20230192717A1.

test: Caco-2 permeability test; format: in vitro ADME; details: human, pH 7.4, Caco-2, 2.0 μM, A to B and B to A, pH 7.40, read-out: Caco summary: ER (efflux ratio)
measured endpoint: efflux ratio at 2 h, 2 μM
Reply: number alone, nothing else.

Record summary for COCC[S@@+]([O-])c1sc2nc(-c3cnc4nn(C)nc4c3)cc(C(C)(C)C)c2c1N [Compound 29] : reported efflux ratio at 2 h, 2 μM = 1

* * *

Examples of molecules with documented pIC50 follow.
Target: hERG channels (Homo sapiens)
Sequence (Q12809 whole entry): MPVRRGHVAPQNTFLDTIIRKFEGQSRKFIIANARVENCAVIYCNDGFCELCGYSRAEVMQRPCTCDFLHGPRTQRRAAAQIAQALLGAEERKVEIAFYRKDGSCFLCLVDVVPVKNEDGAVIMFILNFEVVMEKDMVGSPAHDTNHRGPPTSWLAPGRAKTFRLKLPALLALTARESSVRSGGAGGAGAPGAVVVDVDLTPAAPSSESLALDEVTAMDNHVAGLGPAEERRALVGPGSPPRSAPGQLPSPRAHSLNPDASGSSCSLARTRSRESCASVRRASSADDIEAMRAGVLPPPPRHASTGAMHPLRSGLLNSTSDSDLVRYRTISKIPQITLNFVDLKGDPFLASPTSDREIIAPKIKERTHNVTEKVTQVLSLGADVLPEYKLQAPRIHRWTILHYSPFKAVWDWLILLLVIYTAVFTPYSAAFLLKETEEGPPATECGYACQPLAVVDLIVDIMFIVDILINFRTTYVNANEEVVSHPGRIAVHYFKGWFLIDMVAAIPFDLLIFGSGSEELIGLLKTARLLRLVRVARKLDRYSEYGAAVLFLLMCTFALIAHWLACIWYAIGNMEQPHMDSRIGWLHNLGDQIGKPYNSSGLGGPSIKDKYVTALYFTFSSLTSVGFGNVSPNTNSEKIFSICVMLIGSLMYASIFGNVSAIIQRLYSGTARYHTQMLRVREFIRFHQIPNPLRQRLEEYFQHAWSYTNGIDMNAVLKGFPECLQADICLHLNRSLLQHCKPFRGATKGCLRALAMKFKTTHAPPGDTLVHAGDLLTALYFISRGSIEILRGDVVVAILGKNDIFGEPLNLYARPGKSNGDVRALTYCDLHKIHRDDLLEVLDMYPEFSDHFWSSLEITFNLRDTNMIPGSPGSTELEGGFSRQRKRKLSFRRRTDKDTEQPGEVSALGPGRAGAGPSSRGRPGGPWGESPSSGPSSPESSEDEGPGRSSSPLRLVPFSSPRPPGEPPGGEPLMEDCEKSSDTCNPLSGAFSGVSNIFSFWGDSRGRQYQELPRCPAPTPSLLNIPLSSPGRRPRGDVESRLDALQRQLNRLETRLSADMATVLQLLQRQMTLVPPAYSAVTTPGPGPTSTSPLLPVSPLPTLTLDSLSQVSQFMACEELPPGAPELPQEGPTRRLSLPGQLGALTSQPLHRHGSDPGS
Test: hERG test on manual patch-clamp system
Conditions: CHO-K1 cells expressing hERG, whole-cell patch clamp, room temperature
Method: Visual check for precipitation was conducted before testing.
Scale: negative log10 of molar concentration, which is what pIC50 denotes.

COCC[S@@+]([O-])c1sc2nc(-c3cnc4nn(C)nc4c3)cc(C(C)(C)C)c2c1N : 4.96

Now examine the next entry.
Record summary for `COCC[S@@+]([O-])c1sc2nc(-c3cnc4nn(C)cc4c3)c(C#N)c(-c3ccccc3)c2c1N` : reported pIC50 = 4.89
